FYI, the data here is from patent US20170129961A1.

Molecular target: T1, human CD70 (human, UniProt P32970 1-193)
T1 construct: also called hu CD70; CD27L
T1 sequence: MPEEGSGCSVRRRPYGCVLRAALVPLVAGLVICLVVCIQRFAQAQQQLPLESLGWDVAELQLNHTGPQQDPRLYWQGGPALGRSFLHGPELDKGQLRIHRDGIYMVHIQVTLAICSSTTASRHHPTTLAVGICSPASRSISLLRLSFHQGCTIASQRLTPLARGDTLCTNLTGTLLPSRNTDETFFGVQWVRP
Assay: FACS on CHO cells, periplasmic scFv

>  <binder>
CD70-11 (scFv, As m32) scFv: QVQLVESGGGVVQPGRSLRLSCAASGFTFSTYGMHWVRQAPGKCLEWVAVIWYDGSNKYYGDSVKGRFTISRDNSKNTLYLQMNSLRAEDTAVYYCARDNSHYYYGMDVWGQGTTVTVSSGGGGSGGGGSGGGGSQSVLTQPPSVSGAPGQRVTISCTGSSSNIGAGYDVNWYQQFPGTAPKLLIYVNNNRPSGVPDRFSGSTSGTSASLAITGLQAEDEADYYCQSYETSLSASVFGCGTRLTVL

>  <binding result>
binds

$$$$
>  <binder>
CD70-68 (scFv, As m32) scFv: EVQLLESGGGLVQPGGSLRLSCAASGFTFSSYAMSWVRQAPGKCLEWVSVISDSGGITDFADSVKGRFTISRDNSRNTLYLQMNSLRAEDTAVYFCARHDYSNYFFFDYWGQGTLVTVSSGGGGSGGGGSGGGGSDIQMTQSPSSLSASVGDRVTITCRASQGISNYLAWYQQKPGKVPKLLIYAASILQSGVPSKFSGSGSGTDFTLTISSLQPEDFAIYYCQQYFAYPITFGCGTRLEIK

>  <binding result>
binds

$$$$
>  <binder>
CD70-19 (scFv, As m32) scFv: EVQLLESGGGLVQPGGSLRLSCAASGFTFSTYAMSWVRQAPGKGLEWVSAISGSGGSTFYADSVKGRFTISRDNSKNTLSLQMNSLRAEDTAVYYCAKHDYSNYPYFDYWGQGTLVTVSSGGGGSGGGGSGGGGSEIVLTQSPGTLSLSPGERATLSCRASQSVRSSYLAWYQQKPGQAPRLLIYGASSRATGIPDRFSGSGSGTDFTLTISRLEPEDFAVYYCQQYGDLPFTFGPGTKLEIK

>  <binding result>
binds

$$$$
